# AC50 listing for each entry below
test: CCTE_Mundy_HCI_Cortical_Synap_Neur_Matur_NeuronCount: CCTE's Synaptogenesis and Neurite Maturation Assay in rat cortical cells for Neuron Count, Mundy Lab (AID 2284242);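 further: neuron number from Hoechst nuclei and MAP2 staining by high-content imaging; hits reduce neuron count versus DMSO baseline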
Results filed as inconclusive are left out. Calls of active or inactive are those of the source. How the source made its calls: active means hit-call score of the fitted dose curve at least 0.9, where 1 is the maximum; inconclusive means response in the unintended direction; inactive means score below 0.9.
MEASURED QUANTITY: AC50

| COMPOUND | MEASURED QUANTITY | RESULT |
| --- | --- | --- |
| COP(=S)(OC)Oc1ccc([N+](=O)[O-])cc1 | AC50 | 22.1 µM (active) |
| CC[C@H](C)[C@H]1O[C@]2(C=C[C@@H]1C)C[C@@H]1C[C@@H](C/C=C(\C)[C@@H](O[C@H]3C[C@H](OC)[C@@H](O[C@H]4C[C@H](OC)[C@@H](O)[C@H](C)O4)[C@H](C)O3)[C@@H](C)/C=C/C=C3\CO[C@@H]4[C@H](O)C(C)=C[C@@H](C(=O)O1)[C@]34O)O2 (tested in a mixture with another compound) | AC50 | 1.55 µM (active) |
| COP(=O)(OC)OC=C(Cl)Cl | AC50 | 81.4 µM (active) |
| O=S1OCC2C(CO1)C1(Cl)C(Cl)=C(Cl)C2(Cl)C1(Cl)Cl (configuration not stated) | AC50 | 22.5 µM (active) |
| CC1(c2ccc(Oc3ccccc3)cc2)OC(=O)N(Nc2ccccc2)C1=O (configuration not stated) | AC50 | 10.9 µM (active) |
| CC1(C)C(C=C(Cl)Cl)C1C(=O)OC(C#N)c1ccc(F)c(Oc2ccccc2)c1 (configuration not stated) | AC50 | 49.9 µM (active) |
